method summary: NCI Yeast Anticancer Drug Screen. Data for the mec2-1 strain (AID 157)
experimental context: S. cerevisiae mec2-1 strain, at 50.0 µM, stronger effect = higher value
This is part of a sample that, as a whole, favours compounds with a hit. Of some 79,000 tested, about 15% had one in any assay.
Parameter: growth inhibition. Scope: all listed entries.
Respond with the bare value in %.

molecule=C=C(CC)C(=O)c1ccc(OCC(=O)O)c(Cl)c1Cl unit_spec=% measured_number=-15.9

Could you now consider this next molecule?
Ask | Using the record for Cc1cc(Cl)ccc1NC(=O)C1C(=O)C(=O)N(c2ccc(Cl)cc2C)C1=O (stereo not drawn) , report its growth inhibition.
Reply | -2.3
